Here, each record is paired with measured Selectivity versus PI3Kalpha data.
Target: PI3Kalpha (Homo sapiens)
Construct: purchased Upstate; Millipore 14-602
Sequence (P42336 whole entry): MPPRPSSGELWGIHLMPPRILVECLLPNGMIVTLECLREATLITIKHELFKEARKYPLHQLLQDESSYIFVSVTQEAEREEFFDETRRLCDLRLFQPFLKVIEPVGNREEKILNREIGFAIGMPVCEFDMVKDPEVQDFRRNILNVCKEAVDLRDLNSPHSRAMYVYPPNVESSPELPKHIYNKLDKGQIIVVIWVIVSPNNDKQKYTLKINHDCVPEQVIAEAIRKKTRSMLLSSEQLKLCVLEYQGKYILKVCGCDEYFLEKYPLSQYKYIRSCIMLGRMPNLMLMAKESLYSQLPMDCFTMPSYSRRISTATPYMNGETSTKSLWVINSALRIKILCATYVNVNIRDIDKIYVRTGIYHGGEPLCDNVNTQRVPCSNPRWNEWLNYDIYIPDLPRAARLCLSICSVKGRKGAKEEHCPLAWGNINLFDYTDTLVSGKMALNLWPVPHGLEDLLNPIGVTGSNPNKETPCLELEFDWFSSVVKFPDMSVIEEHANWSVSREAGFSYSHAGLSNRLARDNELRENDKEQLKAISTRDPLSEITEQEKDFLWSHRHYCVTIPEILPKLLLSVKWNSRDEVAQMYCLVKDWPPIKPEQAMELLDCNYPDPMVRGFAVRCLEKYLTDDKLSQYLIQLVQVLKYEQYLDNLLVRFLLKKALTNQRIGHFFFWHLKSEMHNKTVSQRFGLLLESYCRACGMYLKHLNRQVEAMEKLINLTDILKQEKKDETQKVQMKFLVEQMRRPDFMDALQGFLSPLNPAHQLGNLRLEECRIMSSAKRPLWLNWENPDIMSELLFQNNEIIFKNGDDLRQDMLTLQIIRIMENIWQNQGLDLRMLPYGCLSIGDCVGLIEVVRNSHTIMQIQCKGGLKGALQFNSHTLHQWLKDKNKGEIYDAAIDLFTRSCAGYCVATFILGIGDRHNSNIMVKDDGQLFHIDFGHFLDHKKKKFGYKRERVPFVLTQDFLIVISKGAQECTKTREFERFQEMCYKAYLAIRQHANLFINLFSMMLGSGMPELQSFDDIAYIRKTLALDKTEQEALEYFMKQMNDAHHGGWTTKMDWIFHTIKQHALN
Sequence (P27986 whole entry partner): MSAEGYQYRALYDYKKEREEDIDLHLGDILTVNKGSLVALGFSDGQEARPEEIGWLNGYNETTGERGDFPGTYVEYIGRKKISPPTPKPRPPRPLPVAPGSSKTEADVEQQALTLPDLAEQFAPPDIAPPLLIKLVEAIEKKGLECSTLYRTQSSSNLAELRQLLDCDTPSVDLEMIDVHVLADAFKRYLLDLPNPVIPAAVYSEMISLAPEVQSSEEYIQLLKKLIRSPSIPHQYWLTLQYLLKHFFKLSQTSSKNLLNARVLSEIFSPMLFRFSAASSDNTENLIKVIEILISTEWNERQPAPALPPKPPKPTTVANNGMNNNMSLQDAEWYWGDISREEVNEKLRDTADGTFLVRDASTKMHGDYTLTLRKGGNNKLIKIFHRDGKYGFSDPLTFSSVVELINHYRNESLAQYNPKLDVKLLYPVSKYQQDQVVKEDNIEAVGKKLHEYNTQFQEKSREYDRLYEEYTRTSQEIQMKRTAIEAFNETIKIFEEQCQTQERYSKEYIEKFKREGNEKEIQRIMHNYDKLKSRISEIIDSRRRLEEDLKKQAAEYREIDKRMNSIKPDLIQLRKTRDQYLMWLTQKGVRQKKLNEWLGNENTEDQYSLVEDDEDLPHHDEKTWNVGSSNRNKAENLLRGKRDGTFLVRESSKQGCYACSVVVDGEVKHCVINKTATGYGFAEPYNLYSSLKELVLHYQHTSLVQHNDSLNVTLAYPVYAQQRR
Test: HTRF PI3K biochemical assay, alpha isoform (selectivity versus delta)
Settings: relative ratio PI3K-alpha IC50 value / PI3K-delta IC50 value
Source text: HTRF PI3K Biochemical Assay to Measure Intrinsic Potency of Compound Inhibitors The PI3-Kinase biochemical assays were developed to measure the intrinsic potency and compound dependent inhibition of the alpha, beta, delta, and gamma PI3K isoform enzymes. […] In the absence of PIP3, an HTRF (Homogeneous Time-Resolved Fluorescence energy transfer) complex is formed consisting of europium (Eu)-labeled anti-GST, GSTtagged GRP1-PH domain, biotin-PIP3 and streptavidin conjugated APC. […]

Here are 5 compounds together with their reported answers.
| compound | study_system | property | experimental_result |
| --- | --- | --- | --- |
| CCn1c(-c2cnc(C)nc2)nc2c(NC3CCc4c(c(C(C)C)nn4C(=O)OC)C3)ncnc21 (single isomer, unassigned) [Compound 2-19] | PI3Kalpha (Homo sapiens) | Selectivity versus PI3Kalpha | >10 |
| CCn1c(-c2cnc(C)nc2)nc2c(NC3Cc4c(ncn4C(C)C)C(C)C3)ncnc21 (single isomer, unassigned) [Compound 5-17] | PI3Kalpha (Homo sapiens) | Selectivity versus PI3Kalpha | >10 |
| CCn1c(-c2ccc(C(F)(F)F)nc2)nc2c(NC3CCc4ncn(C5CC5)c4C3)ncnc21 (single isomer, unassigned) [Compound 5-3] | PI3Kalpha (Homo sapiens) | Selectivity versus PI3Kalpha | >10 |
| CCn1c(-c2cnc(C)nc2)nc2c(NC3CCc4ncn(C(C)C)c4C3)ncnc21 (single isomer, unassigned) [Compound 5-16] | PI3Kalpha (Homo sapiens) | Selectivity versus PI3Kalpha | >10 |
| CCn1c(-c2cnc(C)nc2)nc2c(NC3CCc4c(c(C(C)C)nn4C(=O)OC(C)(C)C(F)(F)F)C3)ncnc21 (racemic) [Compound 2-20] | PI3Kalpha (Homo sapiens) | Selectivity versus PI3Kalpha | >10 |

Request body: readout Selectivity versus PI3Kalpha, system PI3Kalpha (Homo sapiens), query CCn1c(-c2cnc(C)nc2)nc2c(NC3CCc4ncc(C(C)C)n4C3)ncnc21 (single isomer, unassigned) [Compound 4-4] . Return the value.
>10

And what about the compound CCn1c(-c2cnc(C)nc2)nc2c(NC3Cc4cnn(Cc5ccccc5)c4C3)ncnc21 (racemic) [Compound 2-26] ?
>10

And what about the compound CCn1c(-c2ccc(OC)nc2)nc2c(NC3CCc4nnc(C5CC5)n4C3)ncnc21 (racemic) [Compound 1-12] ?
>10

And what about the compound CCn1c(C(F)F)nc2c(NC3CCc4nnc(C(C)C)n4C3)ncnc21 (single isomer, unassigned) [Compound 1-9] ?
>10

And what about the compound CCc1nnc2n1CC(Nc1ncnc3c1nc(-c1cnc(C)nc1)n3CC)CC2 (single isomer, unassigned) [Compound 1-7] ?
>10

And what about the compound CCn1c(-c2cnc(C)nc2)nc2c(NC3CCc4c(c(C(C)C)nn4S(C)(=O)=O)C3)ncnc21 (racemic) [Compound 2-23] ?
>10

And what about the compound CCn1c(-c2cnc(C)nc2)nc2c(NC3CCc4ncc(C5CC5)n4C3)ncnc21 (single isomer, unassigned) [Compound 4-2] ?
>10

And what about the compound CCn1c(-c2cnc(C)nc2)nc2c(NC3CCc4ncc(C5CC5)n4C3)ncnc21 (single isomer, unassigned) [Compound 4-1] ?
>10
